Reference for the values: patent US20210246200A1

target: T1, Proleukin® (aldesleukin) (human, UniProt P60568 21-153, limits assumed); experiment: ELISA, coated Proleukin, serially diluted supernatant
T1 construct: Variant of human wt IL-2 with C145S (C125S on mature IL-2); also called IL-2 (Proleukin®); human IL-2 (Proleukin)
T1 sequence (P60568 other isoform, or with tags, fused parts or gaps limits assumed): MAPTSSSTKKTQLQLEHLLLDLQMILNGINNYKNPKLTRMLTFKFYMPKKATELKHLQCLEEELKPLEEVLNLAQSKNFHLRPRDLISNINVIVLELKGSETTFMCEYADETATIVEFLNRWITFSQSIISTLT
Property label: EC50 (nM)
Supply the numeric figure in nM, leaving out any unit text.

binder="Antibody No: 14 (antibody, human IgG1, kappa, N297A, V domains shown, VH N58Y; VK A50T; HEK293F supernatant) VH: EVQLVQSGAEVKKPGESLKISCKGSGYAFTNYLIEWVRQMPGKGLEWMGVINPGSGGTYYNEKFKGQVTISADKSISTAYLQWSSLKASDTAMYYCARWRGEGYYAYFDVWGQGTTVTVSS VL: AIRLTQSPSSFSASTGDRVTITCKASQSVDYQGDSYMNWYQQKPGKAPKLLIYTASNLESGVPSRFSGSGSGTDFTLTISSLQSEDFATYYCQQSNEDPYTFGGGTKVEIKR" property_label=EC50 experimental_value=0.36

For the next question, use this binder.
Please look up its EC50: Antibody No: 26 (antibody, human IgG1, kappa, N297A, V domains shown, VH N58Y + T30S; VK WT; HEK293F supernatant; 108929 is kept apart) VH: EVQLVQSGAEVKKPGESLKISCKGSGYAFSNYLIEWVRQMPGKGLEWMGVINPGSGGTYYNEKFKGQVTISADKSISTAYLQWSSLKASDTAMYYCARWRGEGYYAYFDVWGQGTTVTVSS VL: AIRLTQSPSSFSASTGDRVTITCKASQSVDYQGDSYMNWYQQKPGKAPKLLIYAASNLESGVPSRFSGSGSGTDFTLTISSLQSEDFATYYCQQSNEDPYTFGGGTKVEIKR 0.49
